// TGI lookup, one value per entry
System: MCF7 breast
test: NCI tumour cell line growth inhibition, 48 h

molecule	TGI
O=C(Nc1ccc2[nH]c(=S)sc2c1)Nc1ccccc1F	> 100 µM
O=C(Nc1ccccc1)n1[nH]c(=O)n(-c2ccccc2)c1=O	> 100 µM
O=c1[nH]c(=O)c2cc(C3CC(O)C(CO)O3)ccc2[nH]1 (stereo unspecified)	> 100 µM
C[n+]1ccc(Nc2ccc(NC(=O)c3ccc(Nc4cc[n+](C)c5ccc([N+](=O)[O-])cc45)cc3[N+](=O)[O-])cc2)cc1	> 58.3 µM
O=Cc1ccccc1B(O)O	> 100 µM
Oc1ccccc1C=Nc1nc(SCc2ccccc2)nc2[nH]ncc12	> 100 µM
COc1cc(/C=C2\C(=O)N(c3ccccc3Cl)C(c3ccccc3)S2(=O)=O)cc(OC)c1OC (stereo unspecified)	> 100 µM
CC(=O)N(C(C)=O)n1c(-c2ccccc2)n[nH]c1=O	> 100 µM
CC1(c2cccc(Cl)c2)CC(c2cccc(Cl)c2)=C(C#N)C(=C(C#N)C#N)N1 (stereo unspecified)	51.6 µM
COc1ccc(C(=O)/C=C/c2ccc3c(c2)OCO3)c(OCc2ccccc2)c1	> 100 µM
COc1cccc(N2C(=O)/C(=C\c3ccccc3)SC2c2cc(OC)c(OC)c(OC)c2)c1 (stereo unspecified)	> 100 µM

====

Tested on: HCT-15 colon
test: NCI tumour cell line growth inhibition, 48 h
Catalogue of GI50 readings, one per entry.

molecule	target-entity	GI50
O=C(c1ccccc1)C(Br)C(Br)c1cccc([N+](=O)[O-])c1 (configuration not stated)	HCT-15 colon	1.72 µM
COC(=O)C1CCCN1C(=O)[C@@H]1CCCN1C(=O)[C@H](Cc1c[nH]c2ccccc12)NC(=S)Nc1cc(C(F)(F)F)cc(C(F)(F)F)c1 (some centres not stated)	HCT-15 colon	3.41 µM
FC(F)(F)c1ccc(C#Cc2ccccc2C#Cc2ccccc2)cc1	HCT-15 colon	35.1 µM
COc1cc(-n2cc(-c3ccc(Cl)cc3)nc2SCc2cccc(C#N)c2)cc(OC)c1OC	HCT-15 colon	> 100 µM
C=C1C(=O)O[C@H]2[C@H]1CCC(/C=N/c1ncc(Br)cc1N)=C\CC[C@@]1(C)O[C@@H]21	HCT-15 colon	1.49 µM
Oc1ccccc1C=Nc1nc(SCc2ccccc2)nc2[nH]ncc12	HCT-15 colon	> 100 µM
NC1=C(c2nc(-c3ccccc3)cs2)C(c2ccc(Br)cc2)c2c(c3ccccc3oc2=O)O1 (configuration not stated)	HCT-15 colon	70.1 µg/mL

====

System: NCI-H460 lung
test: NCI tumour cell line growth inhibition, 48 h

compound	target-entity	TGI
CN1C(=O)C(c2c[nH]c3ccccc23)N(C)C(=O)C1c1c[nH]c2ccccc12 (stereo not drawn)	NCI-H460 lung	> 100 µM
O=C(c1ccccc1)[C@@H]1C[C@H](Sc2ccccc2)c2cc(Cl)ccc2N1	NCI-H460 lung	91.6 µM
Cc1c(F)c(N)c2c(=O)cc(-c3ccc(N)c(F)c3)oc2c1F	NCI-H460 lung	24.2 µM
O=C(O)NCC1CCCCC1 (tested in a mixture with another compound)	NCI-H460 lung	26.1 µM
COc1ccc(NC(=O)/C(=N/NC(N)=S)C2C(=O)NC(=S)NC2=O)c(OC)c1	NCI-H460 lung	> 100 µM
N#CCCN(c1ccc(C=Nc2ccccc2Cl)cc1)S(=O)(=O)c1ccccc1	NCI-H460 lung	> 100 µM
NCCN.NCCN.O=C([O-])CCl.O=C([O-])CCl.[Co+3].[O-][Cl+3]([O-])([O-])[O-]	NCI-H460 lung	> 100 µM
O=C1C2C(c3ccccc3)NC(c3ccccc3)C1C(c1ccccc1)NC2c1ccccc1 (stereo not drawn)	NCI-H460 lung	> 100 µM
C=C1C(=O)O[C@H]2[C@H]1CCC(/C=N/c1ncc(Br)cc1N)=C\CC[C@@]1(C)O[C@@H]21	NCI-H460 lung	22.3 µM
N#Cc1ccc(C(=O)/C=C/c2ccc(O)c(O)c2)cc1	NCI-H460 lung	29.8 µM
O=[N+]([O-])c1cc2c(c([N+](=O)[O-])c1)NCc1ccccc1O2	NCI-H460 lung	> 100 µM
COC(=O)NC12CC3CC(CC(F)(C3)C1)C2	NCI-H460 lung	> 100 µM
O=C(O)C1C(C(=O)O)C23CC2(C(=O)O)C2(C(=O)O)CCC3=C3CCCC312 (stereo not drawn)	NCI-H460 lung	20 µM
CC1=NN(C(=O)CC(=O)Nc2ccc(C)cc2)C(=O)C1N=Nc1ccc(S(=O)(=O)c2ccc(N=NC3C(=O)N(C(=O)CC(=O)Nc4ccc(C)cc4)N=C3C)cc2)cc1 (stereo not drawn)	NCI-H460 lung	> 100 µM
FC(F)(F)c1ccc(C#Cc2ccccc2C#Cc2ccccc2)cc1	NCI-H460 lung	> 100 µM
S=c1ssc(Oc2ccccc2)c1Cl	NCI-H460 lung	33.1 µM
COc1ccc(NC(=O)COCCOCCNC[C@@H]2C(=O)O[C@H]3[C@H]2CC/C(COC(=O)OC/C2=C/CC[C@@]4(C)O[C@H]4[C@H]4OC(=O)[C@@H](CN(C)C)[C@@H]4CC2)=C\CC[C@@]2(C)O[C@@H]32)c(O)c1C(N)=O	NCI-H460 lung	> 50 µM
Cc1ccc(N(C(=O)Nc2ccc(F)c(Cl)c2)C2=NCC(C)S2)cc1 (stereo not drawn)	NCI-H460 lung	> 100 µM

Cited source: PubChem BioAssay (NCI)
